# ASSAY COMMENT: Inhibition of jack bean beta-N-acetylglucosaminidase by pNP-GlcNAc substrate hydrolysis assay
# Design: species or system Canavalia ensiformis
RESULT TYPE: IC50 (pM)
Note: unit pM is implicit; provide only the numeric part.

Documented IC50 of CC(=O)NC[C@H]1[C@H](O)[C@H](O)[C@@H]2[C@H](O)C[C@@H](CO)N21 (relative stereo) : 288

====

# ASSAY COMMENT: Competitive inhibition of Penicillium oxalicum beta-N-acetylglucosaminidase by pNP-GlcNAc substrate hydrolysis assay
RESULT TYPE: Ki
Report field: quantity (unit follows the number).

Consider CC(=O)N[C@H]1c2nc(CC(=O)O)cn2[C@H](CO)[C@H](O)[C@@H]1O [NAGSTATIN] . Its measured Ki is 8.11 nM

Just for reference, ChEMBL document CHEMBL1152625 is where these values come from.
